molecular target: UniProtKB Q9NPD5; settings: chinese hamster, cho, 10 µM
Sequence (Q9NPD5 whole entry): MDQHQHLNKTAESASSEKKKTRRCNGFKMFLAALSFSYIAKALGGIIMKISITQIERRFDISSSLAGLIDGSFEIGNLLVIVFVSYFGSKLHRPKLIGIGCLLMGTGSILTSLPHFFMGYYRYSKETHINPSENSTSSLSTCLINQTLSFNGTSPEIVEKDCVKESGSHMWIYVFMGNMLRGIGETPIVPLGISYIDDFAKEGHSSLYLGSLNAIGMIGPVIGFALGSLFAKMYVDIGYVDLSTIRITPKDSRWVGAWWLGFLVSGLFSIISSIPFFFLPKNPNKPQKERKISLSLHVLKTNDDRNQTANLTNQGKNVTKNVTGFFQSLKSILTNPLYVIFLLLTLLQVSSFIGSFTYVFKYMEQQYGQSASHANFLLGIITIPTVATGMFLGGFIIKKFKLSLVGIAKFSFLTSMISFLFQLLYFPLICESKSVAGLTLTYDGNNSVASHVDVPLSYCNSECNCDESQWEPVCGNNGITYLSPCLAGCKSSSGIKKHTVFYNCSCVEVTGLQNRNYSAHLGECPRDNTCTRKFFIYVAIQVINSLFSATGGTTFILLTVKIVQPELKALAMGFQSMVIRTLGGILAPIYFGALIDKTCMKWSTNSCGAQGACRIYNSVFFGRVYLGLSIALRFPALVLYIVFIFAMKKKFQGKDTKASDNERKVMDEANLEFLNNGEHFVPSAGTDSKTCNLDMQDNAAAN
# residual activity per record follows
test_readout: residual activity (%)

>  <molecule>
CC(=O)NO [ACETOHYDROXAMIC ACID]

>  <value_measured>
100.9

$$$$
>  <molecule>
C[C@H]1COc2c(N3CCN(C)CC3)c(F)cc3c(=O)c(C(=O)O)cn1c23.C[C@H]1COc2c(N3CCN(C)CC3)c(F)cc3c(=O)c(C(=O)O)cn1c23.O

>  <value_measured>
95.07

$$$$
>  <molecule>
CC(C)COCC(CN(Cc1ccccc1)c1ccccc1)N1CCCC1.Cl.O (stereo not drawn) [BEPRIDIL HYDROCHLORIDE]

>  <value_measured>
131.3

$$$$
>  <molecule>
CNc1ccc(C(=O)CC(O)CCC(C)C2OC(=O)CC(O)CC(=O)CC(O)CC(O)CC(O)CC(O)CC3(O)CC(O)C(C(=O)OC)C(CC(O[C@@H]4O[C@H](C)[C@@H](O)[C@H](N)[C@@H]4O)/C=C/C=C/C=C/C=C/C=C/C=C/C=C/C2C)O3)cc1.COC(=O)C1C(O)CC2(O)CC(O)CC(O)CC(O)CC(O)CC(=O)CC(O)CC(=O)OC(C(C)CCC(O)CC(=O)c3ccc(N)cc3)C(C)/C=C/C=C/C=C/C=C/C=C/C=C/C=C/C(O[C@@H]3O[C@H](C)[C@@H](O)[C@H](N)[C@@H]3O)CC1O2 (stereo partly drawn)

>  <value_measured>
86.4

$$$$
>  <molecule>
ClC1=C(Cl)C2(Cl)C3C4C=CC(C4)C3C1(Cl)C2(Cl)Cl (stereo not drawn)

>  <value_measured>
124.9

$$$$
>  <molecule>
CCCCCCOc1ccccc1C(N)=O [EXALAMIDE]

>  <value_measured>
129.1

$$$$
>  <molecule>
COc1ccc([C@H]2Oc3cc(OC)cc(OC)c3C[C@H]2O)cc1 [EPIAFZELECHIN TRIMETHYL ETHER]

>  <value_measured>
113.6

$$$$
>  <molecule>
O=C(O)c1cc(O)c2c(c1)C(=O)c1cc(O)cc(O)c1C2=O

>  <value_measured>
72.9

$$$$
>  <molecule>
CC[C@H](c1ccc(O)cc1)[C@@H](CC)c1ccc(O)cc1

>  <value_measured>
43.21

$$$$
>  <molecule>
CN(C)CCN(Cc1ccccc1)c1ccccn1.O=C(O)CC(O)(CC(=O)O)C(=O)O [TRIPELENNAMINE CITRATE]

>  <value_measured>
93.75

$$$$
>  <molecule>
Nc1nc2c(ncn2COCCO)c(=O)[nH]1

>  <value_measured>
105.5

$$$$
>  <molecule>
NCCc1ccc(O)cc1

>  <value_measured>
85.38

$$$$
>  <molecule>
C[C@]12C=CC(=O)C=C1CC[C@@H]1[C@@H]2CC[C@]2(C)C(=O)CC[C@@H]12

>  <value_measured>
104

$$$$
>  <molecule>
N#C[C@H](O[C@@H]1O[C@H](CO[C@@H]2O[C@H](CO)[C@@H](O)[C@H](O)[C@H]2O)[C@@H](O)[C@H](O)[C@H]1O)c1ccccc1

>  <value_measured>
103.6

$$$$
>  <molecule>
NC[C@H]1O[C@H](O[C@H]2[C@H](O[C@@H]3O[C@H](CO)[C@@H](O)[C@H]3O)[C@@H](O)[C@H](N)C[C@@H]2N)[C@H](N)[C@@H](O)[C@@H]1O.O=S(=O)(O)O

>  <value_measured>
98.01

$$$$
>  <molecule>
COc1ccc([C@@H]2Sc3ccccc3N(CCN(C)C)C(=O)[C@@H]2OC(C)=O)cc1.Cl [DILTIAZEM HYDROCHLORIDE]

>  <value_measured>
80.81

$$$$
>  <molecule>
CN1C(C(=O)Nc2ccccn2)=C(O)c2sccc2S1(=O)=O

>  <value_measured>
78.1

$$$$
>  <molecule>
C[C@H]1[C@H](C)CC[C@]2(CO)CC[C@]3(C)C(=CC[C@@H]4[C@@]5(C)CC[C@H](O)C(C)(C)[C@@H]5CC[C@]43C)[C@H]12

>  <value_measured>
107.5

$$$$
>  <molecule>
COC(=O)[C@H](O)[C@H]1C(C)(C)[C@H](OC(C)=O)[C@@H]2CC3=C4CC(=O)O[C@@H](c5ccoc5)[C@]4(C)CC[C@@H]3[C@@]1(C)C2=O [SWIETENOLIDE-3-ACETATE]

>  <value_measured>
66.25

$$$$
>  <molecule>
Cc1scc2c1N(C(=O)CN1CCN(C)CC1)c1ccccc1NC2=O.Cl [TELENZEPINE HYDROCHLORIDE]

>  <value_measured>
93.24

$$$$
>  <molecule>
COc1c2c(cc3occ(-c4ccc5c(c4)OCO5)c(=O)c13)OC(C)(C)C=C2

>  <value_measured>
107.5

$$$$
>  <molecule>
COc1cnc(NS(=O)(=O)c2ccc(N)cc2)nc1

>  <value_measured>
112.9

$$$$
>  <molecule>
CN1CCCN=C1COC(=O)C(O)(c1ccccc1)C1CCCCC1.Cl (stereo not drawn) [OXYPHENCYCLIMINE HYDROCHLORIDE]

>  <value_measured>
103.9

$$$$
